Test system: HeLa Kyoto;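 also: HeLa Kyoto cells synchronized by double thymidine or nocodazole block, proteins quantified by TMT10plex mass spectrometry, three independent biological replicates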
Test: melting temperature (median over replicates), in situ; higher = more thermally stable
Details: cell cycle stage: mitosis
measured_metric: melting temperature

substance="MGEIKVSPDYNWFRGTVPLKKIIVDDDDSKIWSLYDAGPRSIRCPLIFLPPVSGTADVFFRQILALTGWGYRVIALQYPVYWDHLEFCDGFRKLLDHLQLDKVHLFGASLGGFLAQKFAEYTHKSPRVHSLILCNSFSDTSIFNQTWTANSFWLMPAFMLKKIVLGNFSSGPVDPMMADAIDFMVDRLESLGQSELASRLTLNCQNSYVEPHKIRDIPVTIMDVFDQSALSTEAKEEMYKLYPNARRAHLKTGGNFPYLCRSAEVNLYVQIHLLQFHGTKYAAIDPSMVSAEELEVQKGSLGISQEEQ [SPG21]" tgt="HeLa Kyoto" measured_value="49 °C"
substance=ARHGAP4 tgt="HeLa Kyoto" measured_value="50.3 °C"
substance="MSALEWYAHKSLGDGIFWIQERFYESGNRANIWLVRGSEQDVVIDTGLGLRSLPEYLYSSGLLQDREAKEDAARRPLLAVATHVHFDHSGGLYQFDRVAVHHAEAEALARGDNFETVTWLSDSEVVRTPSPGWRARQFRVQAVQPTLILQDGDVINLGDRQLTVMHMPGHSRGSICLHDKDRKILFSGDVVYDGSLIDWLPYSRISDYVGTCERLIELVDRGLVEKVLPGHFNTFGAERLFRLASNYISKAGICHKVSTFAMRSLASLALRVTNSRTSP [MBLAC2]" tgt="HeLa Kyoto" measured_value="54.6 °C"
substance="MAKISSPTETERCIESLIAVFQKYAGKDGYNYTLSKTEFLSFMNTELAAFTKNQKDPGVLDRMMKKLDTNSDGQLDFSEFLNLIGGLAMACHDSFLKAVPSQKRT [S100A11]" tgt="HeLa Kyoto" measured_value="52.6 °C"
substance="MSETVICSSRATVMLYDDGNKRWLPAGTGPQAFSRVQIYHNPTANSFRVVGRKMQPDQQVVINCAIVRGVKYNQATPNFHQWRDARQVWGLNFGSKEDAAQFAAGMASALEALEGGGPPPPPALPTWSVPNGPSPEEVEQQKRQQPGPSEHIERRVSNAGGPPAPPAGGPPPPPGPPPPPGPPPPPGLPPSGVPAAAHGAGGGPPPAPPLPAAQGPGGGGAGAPGLAAAIAGAKLRKVSKQEEASGGPTAPKAESGRSGGGGLMEEMNAMLARRRKATQVGEKTPKDESANQEEPEARVPAQSESVRRPWEKNSTTLPRMKSSSSVTTSETQPCTPSSSDYSDLQRVKQELLEEVKKELQKVKEEIIEAFVQELRKRGSP [VASP]" tgt="HeLa Kyoto" measured_value="50.4 °C"
substance=ARFGEF1 tgt="HeLa Kyoto" measured_value="50.1 °C"
substance="MNNLNDPPNWNIRPNSRADGGDGSRWNYALLVPMLGLAAFRWIWSRESQKEVEKEREAYRRRTAAFQQDLEAKYHAMISENRRAVAQLSLELEKEQNRTASYREALISQGRKLVEEKKLLEQERAQVMQEKRQVQPLRSAYLSCLQREENWQRRARLLLKEFEAVLTERQNIYCSLFLPRSKRLEIEKSLLVRASVDPVAADLEMAAGLTDIFQHDTYCGDVWNTNKRQNGRLMWLYLKYWELVVELKKFKRVEEAILEK [CCDC127]" tgt="HeLa Kyoto" measured_value="52.5 °C"
substance="MASIWVGHRGTVRDYPDFSPSVDAEAIQKAIRGIGTDEKMLISILTERSNAQRQLIVKEYQAAYGKELKDDLKGDLSGHFEHLMVALVTPPAVFDAKQLKKSMKGAGTNEDALIEILTTRTSRQMKDISQAYYTVYKKSLGDDISSETSGDFRKALLTLADGRRDESLKVDEHLAKQDAQILYKAGENRWGTDEDKFTEILCLRSFPQLKLTFDEYRNISQKDIVDSIKGELSGHFEDLLLAIVNCVRNTPAFLAERLHRALKGIGTDEFTLNRIMVSRSEIDLLDIRTEFKKHYGYSLYSAIKSDTSGDYEITLLKICGGDD [ANXA3]" tgt="HeLa Kyoto" measured_value="52.2 °C"
substance="MAAPSGGVNCEEFAEFQELLKVMRTIDDRIVHELNTTVPTASFAGKIDASQTCKQLYESLMAAHASRDRVIKNCIAQTSAVVKNLREEREKNLDDLTLLKQLRKEQTKLKWMQSELNVEEVVNDRSWKVFNERCRIHFKPPKNE [CCDC58]" tgt="HeLa Kyoto" measured_value="52.6 °C"
substance="MAQGWAGFSEEELRRLKQTKDPFEPQRRLPAKKSRQQLQREKALVEQSQKLGLQDGSTSLLPEQLLSAPKQRVNVQKPPFSSPTLPSHFTLTSPVGDGQPQGIESQPKELGLENSHDGHNNVEILPPKPDCKLEKKKVELQEKSRWEVLQQEQRLMEEKNKRKKALLAKAIAERSKRTQAETMKLKRIQKELQALDDMVSADIGILRNRIDQASLDYSYARKRFDRAEAEYIAAKLDIQRKTEIKEQLTEHLCTIIQQNELRKAKKLEELMQQLDVEADEETLELEVEVERLLHEQEVESRRPVVRLERPFQPAEESVTLEFAKENRKCQEQAVSPKVDDQCGNSSSIPFLSPNCPNQEGNDISAALAT [GORAB]" tgt="HeLa Kyoto" measured_value="50.9 °C"
substance="MDNRFATAFVIACVLSLISTIYMAASIGTDFWYEYRSPVQENSSDLNKSIWDEFISDEADEKTYNDALFRYNGTVGLWRRCITIPKNMHWYSPPERTESFDVVTKCVSFTLTEQFMEKFVDPGNHNSGIDLLRTYLWRCQFLLPFVSLGLMCFGALIGLCACICRSLYPTIATGILHLLAGLCTLGSVSCYVAGIELLHQKLELPDNVSGEFGWSFCLACVSAPLQFMASALFIWAAHTNRKEYTLMKAYRVA [CLDND1]" tgt="HeLa Kyoto" measured_value="58.6 °C"
substance="MRDRTHELRQGDDSSDEEDKERVALVVHPGTARLGSPDEEFFHKVRTIRQTIVKLGNKVQELEKQQVTILATPLPEESMKQELQNLRDEIKQLGREIRLQLKAIEPQKEEADENYNSVNTRMRKTQHGVLSQQFVELINKCNSMQSEYREKNVERIRRQLKITNAGMVSDEELEQMLDSGQSEVFVSNILKDTQVTRQALNEISARHSEIQQLERSIRELHDIFTFLATEVEMQGEMINRIEKNILSSADYVERGQEHVKTALENQKKARKKKVLIAICVSITVVLLAVIIGVTVVG [STX4]" tgt="HeLa Kyoto" measured_value="50.5 °C"
